Ref: the Kinase Knowledgebase extract (Sharma et al. 2016)

Reported pIC50 values follow for various compounds
target: UniProt:P42336
Sequence (P42336 whole entry, looked up): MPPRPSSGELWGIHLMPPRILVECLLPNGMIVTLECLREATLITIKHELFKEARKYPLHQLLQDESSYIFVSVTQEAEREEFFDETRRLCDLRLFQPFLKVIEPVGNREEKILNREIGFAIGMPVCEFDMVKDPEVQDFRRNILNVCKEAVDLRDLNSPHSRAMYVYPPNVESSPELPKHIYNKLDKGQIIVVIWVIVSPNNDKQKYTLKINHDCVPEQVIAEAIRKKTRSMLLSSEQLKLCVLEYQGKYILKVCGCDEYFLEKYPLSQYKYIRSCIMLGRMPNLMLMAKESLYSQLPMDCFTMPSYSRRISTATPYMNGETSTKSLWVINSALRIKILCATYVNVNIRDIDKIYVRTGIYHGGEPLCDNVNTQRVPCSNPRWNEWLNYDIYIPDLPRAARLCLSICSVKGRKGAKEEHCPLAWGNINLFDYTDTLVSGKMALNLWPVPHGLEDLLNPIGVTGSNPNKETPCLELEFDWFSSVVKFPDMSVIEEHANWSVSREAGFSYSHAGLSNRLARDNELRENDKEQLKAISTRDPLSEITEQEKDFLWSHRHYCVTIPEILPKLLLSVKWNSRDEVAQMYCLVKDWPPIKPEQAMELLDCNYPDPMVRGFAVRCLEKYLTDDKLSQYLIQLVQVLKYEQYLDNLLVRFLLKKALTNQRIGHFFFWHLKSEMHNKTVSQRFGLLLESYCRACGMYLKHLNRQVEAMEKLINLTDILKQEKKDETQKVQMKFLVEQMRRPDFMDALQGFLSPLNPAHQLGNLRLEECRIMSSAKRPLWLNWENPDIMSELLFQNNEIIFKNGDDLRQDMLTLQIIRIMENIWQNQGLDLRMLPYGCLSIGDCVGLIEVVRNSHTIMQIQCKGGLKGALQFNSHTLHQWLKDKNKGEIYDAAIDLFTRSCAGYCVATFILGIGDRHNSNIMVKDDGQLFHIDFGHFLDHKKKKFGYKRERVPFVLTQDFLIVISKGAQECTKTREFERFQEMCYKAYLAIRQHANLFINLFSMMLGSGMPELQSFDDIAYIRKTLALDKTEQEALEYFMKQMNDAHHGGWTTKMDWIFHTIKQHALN
pIC50: −log10 of the molar value.

- COMPOUND SMILES: "Cc1ncnc(N2CCOc3ccc(-c4cncs4)cc3C2)c1Cc1ccc(F)cc1"
  pIC50: "6.00 to 6.60"
- COMPOUND SMILES: "COC(=O)Nc1nc2ccc(-c3ccc4c(c3)CN(c3ncnc5ccccc35)CCO4)cc2[nH]1"
  pIC50: "7.30 to 8.00"
- COMPOUND SMILES: "CCNc1nc2ccc(-c3ccc4c(c3)CN(c3ncnc(NCC)c3C)CCO4)cc2[nH]1"
  pIC50: "≥ 8.00"

---

biological target: UniProtKB P42336; test: Inhibition of PIK3CA Kinase Activity
Reported IC50 values follow for various compounds

- COMPOUND: "CC1(C)CCc2ncnc(N3CCOc4ccc(-c5cnc6[nH]ncc6c5)cc4C3)c2C1"
  IC50: "0.01 to 0.05 µM"
- COMPOUND: "COc1c(O)ccc2c(N3CCOc4ccc(-c5ccc6nc(C)[nH]c6c5)cc4C3)ncnc12"
  IC50: "0.01 to 0.05 µM"
- COMPOUND: "CC1(C)CCc2ncnc(N3CCOc4ccc(-c5cnc(N)c(S(=O)(=O)N6CCCC(O)C6)c5)cc4C3)c2C1 (centres undefined)"
  IC50: "0.01 to 0.05 µM"
- COMPOUND: "Cc1ncc(-c2ccc3c(c2)CN(c2ncnc4c2CCC(C)(C)C4)CCO3)s1"
  IC50: "0.25 to 1 µM"
